B1: library; a variant is named by its letters at N, in order (parent)
chain: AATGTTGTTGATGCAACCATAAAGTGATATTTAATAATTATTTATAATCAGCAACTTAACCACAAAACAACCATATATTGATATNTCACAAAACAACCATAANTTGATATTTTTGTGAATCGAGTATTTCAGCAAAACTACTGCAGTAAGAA

Variants of: B1
Assay: relative integration efficiency (T-LR orientation) vs wild-type transposon end (log2 (normalized fold change)); transposon end mutated: left end; higher = more efficient transposition
Settings: with VchCAST RNA-guided transposition machinery (E. coli BL21(DE3) host, lacZ target)
Label Condition met when relative integration efficiency (log2) is at or above -0.7; otherwise label Condition not met.

CG G10C A11T	Condition not met
CG A73C T74G A75C T76G	Condition not met
CG A66T	Condition met
TG A16C G24T T32G A33C A70C T76A T86G	Condition met
CG A96T C97G C98G A99T	Condition not met
CG T104G	Condition met
CG T8C	Condition not met
CG T105A G106C A107T T108A	Condition not met
CG T105A	Condition not met
CG G7T T8G	Condition not met
CG T114A G115C	Condition met
CG A15T	Condition met
CG T76A	Condition met
CG C55T	Condition met
CG T32G A33C	Condition met
CG C71A C72A	Condition not met
CG T111A	Condition met
CG T113G	Condition met
CG A46G A47G C49G A50T G51C C52T A53C A54G A58C C60G	Condition not met
CG A47T T48A C49G A50T	Condition not met
CG T56A	Condition met
CG A75G	Condition met

Source listed as the supplement of paper PMC10201428.
